Tested system: Gal(a1-3)Gal(b1-3)[Fuc(a1-4)]GlcNAc(b1-2)Man(a1-3)[Gal(a1-3)Gal(b1-3)[Fuc(a1-4)]GlcNAc(b1-2)Man(a1-6)]Man(b1-4)GlcNAc(b1-4)GlcNAc
Assay remarks: glycan array binding signal (z-score within array); higher = stronger binding
Experimental setup: glycan notation: IUPAC condensed, linker removed
The sample as a whole holds a higher share of the strongest signals than the screen did.
Readout kind: glycan array binding signal (z-score)
Reply with just the number.

| Binder | Readout kind | Assay value |
| --- | --- | --- |
| PFL (Pseudomonas fluorescens) (protein) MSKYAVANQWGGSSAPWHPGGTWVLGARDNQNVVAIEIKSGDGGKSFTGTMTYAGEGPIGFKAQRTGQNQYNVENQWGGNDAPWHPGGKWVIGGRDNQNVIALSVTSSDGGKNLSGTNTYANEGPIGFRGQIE | glycan array binding signal (z-score) | 0.499 |

# glycan array binding signal (z-score) of CFEM-PPm (Pichia pastoris), F2QPV1 (protein) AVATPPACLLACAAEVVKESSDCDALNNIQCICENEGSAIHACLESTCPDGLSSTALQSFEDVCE = -0.006

glycan array binding signal (z-score) reported for this binder Gal 1 (Canis lupus) (protein) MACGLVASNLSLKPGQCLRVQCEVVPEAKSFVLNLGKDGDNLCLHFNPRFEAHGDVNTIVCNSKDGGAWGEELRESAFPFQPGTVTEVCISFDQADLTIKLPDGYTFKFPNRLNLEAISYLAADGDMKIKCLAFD : -0.274

So for Nc3LysM (protein) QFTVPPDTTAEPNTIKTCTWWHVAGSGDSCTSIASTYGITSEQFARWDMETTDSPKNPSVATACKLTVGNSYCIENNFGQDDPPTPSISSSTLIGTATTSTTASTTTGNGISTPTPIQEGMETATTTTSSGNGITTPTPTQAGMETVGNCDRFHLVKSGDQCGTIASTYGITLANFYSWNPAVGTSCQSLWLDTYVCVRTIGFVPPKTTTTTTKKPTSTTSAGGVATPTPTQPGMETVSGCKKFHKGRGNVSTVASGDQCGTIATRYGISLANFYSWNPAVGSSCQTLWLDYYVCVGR , the logged glycan array binding signal (z-score) turned out to be 0.161
